Quick reference: pIC50 of the listed items.
biological target: human mineralocorticoid receptor (hMR) (Homo sapiens); assay: GAL4-hMR-LBD luciferase reporter assay in HEK293 cells with 1 nM aldosterone (Test Example 1); conditions: concentration showing Imax/2; HEK293, GAL4-hMR-LBD, 1 nM aldosterone, overnight; read-out: ICmax50;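 on Imax: 0% is DMSO-only control and 100% is 1 nM aldosterone alone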
pIC50: −log10 of the molar value.

[
  {
    "molecule": "CCc1c(C(=O)Nc2ccc(S(C)(=O)=O)cc2)cc(C[C@H](C)O)n1-c1ccc(F)cc1Cl (single isomer, unassigned) [Example 44 - isomer A]",
    "relation operator": "<",
    "pIC50": 6.00
  },
  {
    "molecule": "Cc1c(C(=O)Nc2ccc(S(C)(=O)=O)cc2)cc(C[C@H](C)O)n1-c1ccc(F)cc1Cl [Example 40]",
    "relation operator": "=",
    "pIC50": 7.59
  },
  {
    "molecule": "Cc1c(C(=O)Nc2ccc(S(N)(=O)=O)c(Cl)c2)cc(C[C@H](C)O)n1-c1ccc(F)cc1C(F)(F)F [Example 12]",
    "relation operator": "=",
    "pIC50": 8.17
  }
]

###

Molecular target: human mineralocorticoid receptor (hMR) (Homo sapiens, UniProt P08235)
Construct: expressed in transfected cells; host or cells: HEK293
Sequence (P08235 726-964 limits assumed): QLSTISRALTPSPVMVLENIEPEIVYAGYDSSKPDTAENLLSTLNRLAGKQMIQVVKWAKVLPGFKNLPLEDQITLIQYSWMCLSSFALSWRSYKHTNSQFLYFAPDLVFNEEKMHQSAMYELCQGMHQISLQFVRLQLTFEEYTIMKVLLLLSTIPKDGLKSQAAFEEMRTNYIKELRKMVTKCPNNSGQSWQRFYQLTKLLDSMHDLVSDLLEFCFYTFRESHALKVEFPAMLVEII
Test: GAL4-hMR-LBD luciferase reporter assay in HEK293 cells with 1 nM aldosterone (Test Example 1);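 on Imax: 0% is DMSO-only control and 100% is 1 nM aldosterone alone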
Type: cell-based
Settings: HEK293; read-out: Imax
Quick reference: Emax of the listed items.

[
  {
    "compound": "Cc1c(C(=O)Nc2ccc(S(C)(=O)=O)cc2)cc(C[C@H](C)O)n1-c1ccc(F)cc1OC(F)F (single isomer, unassigned) [Example 9 - isomer A]",
    "target desc": "human mineralocorticoid receptor (hMR) (Homo sapiens, UniProt P08235)",
    "unit": "%",
    "Emax": 84
  },
  {
    "compound": "Cc1cc(NC(=O)c2cc(C[C@H](C)O)n(-c3ccc(F)cc3OC(F)F)c2C)ccc1S(C)(=O)=O (single isomer, unassigned) [Example 22 - isomer A]",
    "target desc": "human mineralocorticoid receptor (hMR) (Homo sapiens, UniProt P08235)",
    "unit": "%",
    "Emax": 99
  },
  {
    "compound": "Cc1cc(C(=O)Nc2ccc(S(C)(=O)=O)cc2)c(C)n1-c1ccccc1C(F)(F)F [Reference compound A, reference compound]",
    "target desc": "human mineralocorticoid receptor (hMR) (Homo sapiens, UniProt P08235)",
    "unit": "%",
    "Emax": 114
  },
  {
    "compound": "Cc1c(C(=O)Nc2ccc(S(N)(=O)=O)c(Cl)c2)cc(C[C@H](C)O)n1-c1ccc(F)cc1Cl [Example 49]",
    "target desc": "human mineralocorticoid receptor (hMR) (Homo sapiens, UniProt P08235)",
    "unit": "%",
    "Emax": 96
  },
  {
    "compound": "Cc1c(C(=O)Nc2ccc(S(C)(=O)=O)cc2)cc(C[C@H](C)O)n1-c1ccc(Cl)cc1C(F)(F)F (single isomer, unassigned) [Example 6 - isomer A]",
    "target desc": "human mineralocorticoid receptor (hMR) (Homo sapiens, UniProt P08235)",
    "unit": "%",
    "Emax": 79
  },
  {
    "compound": "Cc1c(C(=O)Nc2ccc(S(N)(=O)=O)c(Cl)c2)cc(C[C@H](C)O)n1-c1ccc(F)cc1C(F)(F)F [Example 12]",
    "target desc": "human mineralocorticoid receptor (hMR) (Homo sapiens, UniProt P08235)",
    "unit": "%",
    "Emax": 108
  },
  {
    "compound": "Cc1c(C(=O)Nc2ccc(S(C)(=O)=O)cc2)cc(CC(=O)N(C)C)n1-c1ccc(Cl)cc1C(F)(F)F [Example 61]",
    "target desc": "human mineralocorticoid receptor (hMR) (Homo sapiens, UniProt P08235)",
    "unit": "%",
    "Emax": 115
  },
  {
    "compound": "Cc1c(C(=O)Nc2ccc(S(C)(=O)=O)cc2)cc(C[C@H](C)O)n1-c1ccc(Cl)cc1OC(F)F [Example 11]",
    "target desc": "human mineralocorticoid receptor (hMR) (Homo sapiens, UniProt P08235)",
    "unit": "%",
    "Emax": 107
  },
  {
    "compound": "Cc1c(C(=O)Nc2ccc(S(C)(=O)=O)cc2)cc(C[C@H](C)O)n1-c1ccc(Cl)cc1Oc1ccc(F)cc1 [Example 45]",
    "target desc": "human mineralocorticoid receptor (hMR) (Homo sapiens, UniProt P08235)",
    "unit": "%",
    "Emax": 85
  },
  {
    "compound": "Cc1c(C(=O)Nc2ccc(S(C)(=O)=O)cc2)cc(C[C@H](C)O)n1-c1ccc(Cl)cc1C(F)(F)F [Example 6]",
    "target desc": "human mineralocorticoid receptor (hMR) (Homo sapiens, UniProt P08235)",
    "unit": "%",
    "Emax": 92
  },
  {
    "compound": "Cc1c(C(=O)Nc2ccc(S(N)(=O)=O)c(Cl)c2)cc(C[C@H](C)O)n1-c1ccc(F)cc1Cl (single isomer, unassigned) [Example 49 - isomer B]",
    "target desc": "human mineralocorticoid receptor (hMR) (Homo sapiens, UniProt P08235)",
    "unit": "%",
    "Emax": 104
  },
  {
    "compound": "Cc1cc(NC(=O)c2cc(C[C@H](C)O)n(-c3ccc(F)cc3OC(F)F)c2C)ccc1S(C)(=O)=O [Example 22]",
    "target desc": "human mineralocorticoid receptor (hMR) (Homo sapiens, UniProt P08235)",
    "unit": "%",
    "Emax": 111
  },
  {
    "compound": "Cc1c(C(=O)Nc2ccc(S(C)(=O)=O)cc2)cc(C[C@H](C)O)n1-c1ccc(F)cc1OC(F)(F)F (single isomer, unassigned) [Example 16 - isomer A]",
    "target desc": "human mineralocorticoid receptor (hMR) (Homo sapiens, UniProt P08235)",
    "unit": "%",
    "Emax": 101
  },
  {
    "compound": "Cc1c(C(=O)Nc2ccc(S(C)(=O)=O)cc2)cc(C[C@H](C)O)n1-c1ccc(Cl)cc1Cl [Example 43]",
    "target desc": "human mineralocorticoid receptor (hMR) (Homo sapiens, UniProt P08235)",
    "unit": "%",
    "Emax": 100
  },
  {
    "compound": "Cc1c(C(=O)Nc2ccc(S(C)(=O)=O)cc2)cc(C[C@H](C)O)n1-c1ccc(Cl)cc1OC(F)(F)F (single isomer, unassigned) [Example 42 - isomer B]",
    "target desc": "human mineralocorticoid receptor (hMR) (Homo sapiens, UniProt P08235)",
    "unit": "%",
    "Emax": 95
  },
  {
    "compound": "Cc1c(C(=O)Nc2ccc(S(C)(=O)=O)cc2)cc(C[C@H](C)O)n1-c1ccc(Cl)cc1-c1ccc(F)cc1 [Example 50]",
    "target desc": "human mineralocorticoid receptor (hMR) (Homo sapiens, UniProt P08235)",
    "unit": "%",
    "Emax": 114
  },
  {
    "compound": "Cc1c(C(=O)Nc2ccc(S(C)(=O)=O)cc2)cc(C[C@H](C)O)n1-c1ccc(Cl)cc1OC(F)F (single isomer, unassigned) [Example 11 - isomer A]",
    "target desc": "human mineralocorticoid receptor (hMR) (Homo sapiens, UniProt P08235)",
    "unit": "%",
    "Emax": 89
  },
  {
    "compound": "Cc1c(C(=O)Nc2ccc(S(C)(=O)=O)cc2)cc(C[C@H](C)O)n1-c1ccc(F)cc1Cl [Example 40]",
    "target desc": "human mineralocorticoid receptor (hMR) (Homo sapiens, UniProt P08235)",
    "unit": "%",
    "Emax": 112
  },
  {
    "compound": "Cc1c(C(=O)Nc2ccc(S(C)(=O)=O)cc2)cc(CCO)n1-c1ccc(F)cc1Cl [Example 3]",
    "target desc": "human mineralocorticoid receptor (hMR) (Homo sapiens, UniProt P08235)",
    "unit": "%",
    "Emax": 109
  },
  {
    "compound": "Cc1c(C(=O)Nc2ccc(S(C)(=O)=O)cc2)cc(CCF)n1-c1ccc(F)cc1OC(F)F [Example 54]",
    "target desc": "human mineralocorticoid receptor (hMR) (Homo sapiens, UniProt P08235)",
    "unit": "%",
    "Emax": 75
  },
  {
    "compound": "Cc1c(C(=O)Nc2ccc(S(C)(=O)=O)cc2)cc(C[C@H](C)O)n1-c1ccc(F)cc1C(F)(F)F (single isomer, unassigned) [Example 5 - isomer A]",
    "target desc": "human mineralocorticoid receptor (hMR) (Homo sapiens, UniProt P08235)",
    "unit": "%",
    "Emax": 119
  },
  {
    "compound": "Cc1c(C(=O)Nc2ccc(S(C)(=O)=O)cc2)cc(CCO)n1-c1ccc(F)cc1Cl (single isomer, unassigned) [Example 3 - isomer A]",
    "target desc": "human mineralocorticoid receptor (hMR) (Homo sapiens, UniProt P08235)",
    "unit": "%",
    "Emax": 114
  },
  {
    "compound": "Cc1c(C(=O)Nc2ccc(S(C)(=O)=O)cc2)cc(C[C@H](C)O)n1-c1ccc(Cl)cc1Oc1ccc(F)cc1 (single isomer, unassigned) [Example 45 - isomer A]",
    "target desc": "human mineralocorticoid receptor (hMR) (Homo sapiens, UniProt P08235)",
    "unit": "%",
    "Emax": 105
  },
  {
    "compound": "Cc1c(C(=O)Nc2ccc(S(N)(=O)=O)c(Cl)c2)cc(C[C@H](C)O)n1-c1ccc(F)cc1C(F)(F)F (single isomer, unassigned) [Example 12 - isomer A]",
    "target desc": "human mineralocorticoid receptor (hMR) (Homo sapiens, UniProt P08235)",
    "unit": "%",
    "Emax": 113
  },
  {
    "compound": "Cc1cc(C(=O)Nc2ccc(S(C)(=O)=O)cc2)c(C)n1-c1ccc(F)cc1C(F)(F)F [Reference compound B, reference compound]",
    "target desc": "human mineralocorticoid receptor (hMR) (Homo sapiens, UniProt P08235)",
    "unit": "%",
    "Emax": 93
  }
]
